Listed here are compounds together with their documented efficacy or intrinsic activity (value in parentheses) Alpha 2B.
target: alpha 2B adrenergic receptor (Homo sapiens, UniProt P18089); construct: expressed in transfected cells; host or cells: NIH-3T3 cells, transient cotransfection by calcium phosphate; assay: RSAT (Receptor Selection and Amplification Technology) assay, alpha 2B; format: cell-based; settings: ratio of maximal effect to that of standard full agonist brimonidine
Sequence (P18089 whole entry): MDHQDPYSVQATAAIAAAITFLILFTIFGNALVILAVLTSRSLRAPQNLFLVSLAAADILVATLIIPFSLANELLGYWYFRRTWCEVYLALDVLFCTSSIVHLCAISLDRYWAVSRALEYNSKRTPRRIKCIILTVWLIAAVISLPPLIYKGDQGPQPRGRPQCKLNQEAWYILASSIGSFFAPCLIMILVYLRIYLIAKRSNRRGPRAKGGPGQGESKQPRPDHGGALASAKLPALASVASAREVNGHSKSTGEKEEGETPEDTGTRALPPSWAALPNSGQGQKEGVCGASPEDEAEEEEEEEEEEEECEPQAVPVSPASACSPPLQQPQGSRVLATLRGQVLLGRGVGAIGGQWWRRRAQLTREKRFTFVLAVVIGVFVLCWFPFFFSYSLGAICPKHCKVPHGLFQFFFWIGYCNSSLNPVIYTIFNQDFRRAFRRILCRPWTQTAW
measured.attribute: efficacy or intrinsic activity (value in parentheses) Alpha 2B

INSERT INTO results (compound, study_target, experimental_result) VALUES
  ('OCCNC(=S)NCc1cc(Br)ccc1Cl', 'alpha 2B adrenergic receptor (Homo sapiens, UniProt P18089)', 0.78),
  ('OCCNC(=S)NCc1ccccc1Br', 'alpha 2B adrenergic receptor (Homo sapiens, UniProt P18089)', 0.8),
  ('OCCNC(=S)NCc1cc(Cl)ccc1Br', 'alpha 2B adrenergic receptor (Homo sapiens, UniProt P18089)', 0.82),
  ('OCCNC(=S)NCc1c(F)ccc(Br)c1F', 'alpha 2B adrenergic receptor (Homo sapiens, UniProt P18089)', 0.81);

----------
Listed here are compounds together with their documented EC50.
Molecular target: alpha 2A adrenergic receptor (Homo sapiens, UniProt P08913)
Construct: expressed in transfected cells; host or cells: NIH-3T3 cells, transient cotransfection by calcium phosphate
Sequence (P08913 whole entry): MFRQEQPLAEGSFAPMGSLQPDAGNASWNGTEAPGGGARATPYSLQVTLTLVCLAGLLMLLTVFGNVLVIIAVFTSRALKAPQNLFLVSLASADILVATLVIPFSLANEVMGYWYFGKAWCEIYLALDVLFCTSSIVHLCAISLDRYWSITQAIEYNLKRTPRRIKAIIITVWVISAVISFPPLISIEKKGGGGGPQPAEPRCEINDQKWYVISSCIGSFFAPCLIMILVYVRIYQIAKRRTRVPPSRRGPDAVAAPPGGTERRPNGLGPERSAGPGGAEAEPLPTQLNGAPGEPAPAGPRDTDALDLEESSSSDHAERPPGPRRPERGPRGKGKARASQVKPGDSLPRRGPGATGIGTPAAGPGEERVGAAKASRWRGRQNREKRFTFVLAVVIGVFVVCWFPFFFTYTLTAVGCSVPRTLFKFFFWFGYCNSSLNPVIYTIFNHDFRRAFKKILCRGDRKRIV
Assay: RSAT (Receptor Selection and Amplification Technology) assay, alpha 2A
Assay type: cell-based
Conditions: NIH-3T3 cells cotransfected with receptor and Gq/i5
Procedure: Activity was measured using the RSAT (Receptor Selection and Amplification Technology) assay, developed by Receptor Technologies, Inc. of Winooski, Vt. […] The increase in cell number is assessed with an appropriate transfected marker gene such as β-galactosidase, the activity of which can be easily measured in a 96-well format. […] The assay is conducted as follows. […] The EC50 and maximal effect of each drug at each alpha2 receptor is determined. […]
measured.attribute: EC50

INSERT INTO results (compound, measured_attribute, experimental_result) VALUES
  ('Cc1cc(Br)c(F)c(CNC(=S)NCCO)c1', 'EC50', '> 2000 nM'),
  ('OCCNC(=S)NCc1cccc(Cl)c1Cl', 'EC50', '≥ 210000 nM'),
  ('OCCNC(=S)NCc1cccc(OC(F)(F)F)c1', 'EC50', '≥ 210000 nM'),
  ('OCCNC(=S)NCc1c(F)cc(F)c(Cl)c1F', 'EC50', '≥ 210000 nM'),
  ('OCCNC(=S)NCc1c(Br)ccc(F)c1F', 'EC50', '≥ 210000 nM'),
  ('OCCNC(=S)NCc1cccc(I)c1', 'EC50', '63 nM'),
  ('OCCNC(=S)NCc1ccccc1Br', 'EC50', '≥ 210000 nM'),
  ('OCCNC(=S)NCc1cccc(Cl)c1F [drawing 20]', 'EC50', '≥ 210000 nM'),
  ('OCCNC(=S)NCc1cccc(C(F)(F)F)c1Cl', 'EC50', '≥ 210000 nM'),
  ('COc1ccc(Cl)cc1CNC(=S)NCCO', 'EC50', '380 nM'),
  ('COc1c(F)cccc1CNC(=S)NCCO', 'EC50', '≥ 210000 nM'),
  ('OCCNC(=S)NCc1cc(Cl)ccc1Br', 'EC50', '≥ 210000 nM'),
  ('OCCNC(=S)NCc1ccc(F)cc1Cl', 'EC50', '≥ 210000 nM');
